Test system: HEK293 cells overexpressing APOL1 G2
Test protocol: APOL1 G2 HEK293 cell rescue assay (reversal of cell death caused by overexpression of APOL1)
Type: cell-based
Measurement setup: Homo sapiens, HEK293, HEK293 overexpressing APOL1 G2; geometric mean of at least 2 assay runs; † = single assay run
pEC50: −log10 of the molar value.
Entries and their pEC50 values follow.

Molecule	Experimental target	pEC50
CC(=O)N1Cc2ccc(OCCN3CCC4(CC3)C(=O)Nc3ccc(Cl)cc34)cc2C1	HEK293 cells overexpressing APOL1 G2	6.72
O=C1CCc2cc(OCCN3CCC4(CC3)C(=O)Nc3ccc(Cl)cc34)cnc2N1[C@H]1C[C@H](O)C1	HEK293 cells overexpressing APOL1 G2	7.42
C[C@@H](COc1cc(F)c(S(C)(=O)=O)c(F)c1)N1CCC2(CC1)C(=O)Nc1ccc(C#N)cc12 (single isomer, unassigned)	HEK293 cells overexpressing APOL1 G2	6.72
CN1C(=O)Cc2cc(OCCN3CCC4(CC3)C(=O)Nc3ccc(C#N)cc34)cc(F)c21	HEK293 cells overexpressing APOL1 G2	6.61
